read-out: Human Leukocyte Antigen - DR isotype (HLADR), HLA-DRA (gene 3122); assay: BSK_CASM3C_HLADR: BioMAP Diversity Plus: CASM3C Assay for Human Leukocyte Antigen - DR isotype (HLADR) Biomarker Activity (AID 2283043); settings: primary human coronary artery smooth muscle cells; actives raise or lower the signal;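 note: cell-surface HLA-DR protein level quantified by ELISA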
Active and inactive are the calls of the source. Rule for the calls: active = hit-call score of the fitted dose curve at least 0.9, where 1 is the maximum; inactive = score below 0.9.
Outcome field: choose from active, inactive

Sample answers from the record:
{"querySmiles": "O=[N+]([O-])c1ccc(O)c([N+](=O)[O-])c1", "group": "inactive"}
{"querySmiles": "Cc1ccccc1N", "group": "inactive"}
{"querySmiles": "COc1cc(OC)nc(NC(=O)NS(=O)(=O)c2ncccc2C(=O)N(C)C)n1", "group": "inactive"}
{"querySmiles": "O=c1[nH]c(=O)[nH]c(=O)[nH]1", "group": "inactive"}
{"querySmiles": "O=C(O)C(F)(F)C(F)(F)C(F)(F)C(F)(F)C(F)(F)C(F)(F)F", "group": "inactive"}

Prompt: Entry CC(=O)[O][Hg][c]1ccccc1 : call = ?
Response: active

Prompt: Entry CCOP(=S)(OCC)SCCS(=O)(=O)CC : call = ?
Response: inactive

Prompt: Entry COc1cc(-c2ccc(N)c(OC)c2)ccc1N : call = ?
Response: inactive

Prompt: Entry O=C(Nc1ccc2[nH]ccc2c1)c1cc2cc(F)ccc2n1Cc1cccc(F)c1 : call = ?
Response: active

Prompt: Entry C[C@@H]1C[C@@H]([C@H](O)CC2CC(=O)NC(=O)C2)C(=O)[C@@H](C)C1 : call = ?
Response: active

====

test: ATG_PXRE_CIS: Attagene CIS-FACTORIAL HepG2 Assay for human Pregnane X Receptor Element (PXRE) (AID 2282957); settings: HepG2 Attagene CIS-FACTORIAL PXRE reporter, mRNA; actives raise or lower the signal
Calls of active or inactive are those of the source. How the source made its calls: active means hit-call score of the fitted dose curve at least 0.9, where 1 is the maximum; inactive means score below 0.9.
Outcome field: choose from true = active, false = inactive

{"compound": "COc1cc2c(cc1OC)[C@@]13CCN4CC5=CCO[C@H]6CC(=O)N2[C@H]1[C@H]6[C@H]5C[C@H]43", "group": "true"}

Prompt: Entry CCC(C)(C)c1ccc(O)c(C(C)(C)CC)c1 : call = ?
Response: true

Prompt: Entry CC1(C)CCC(Cc2ccc(Cl)cc2)C1(O)Cn1cncn1 (stereo unspecified) : call = ?
Response: true

Prompt: Entry CCCCCCCCC(=O)NCc1ccc(O)c(OC)c1 : call = ?
Response: true

Prompt: Entry O=C(NCO)NCO : call = ?
Response: true

Prompt: Entry CCOC(=O)Nc1cccc(OC(=O)Nc2ccccc2)c1 : call = ?
Response: true

Prompt: Entry CC(=O)C(Cl)C(=O)N(C)C (stereo unspecified) : call = ?
Response: false

Prompt: Entry ClC1=C(Cl)[C@]2(Cl)[C@@H]3[C@@H](Cl)[C@@H](Cl)C[C@@H]3[C@@]1(Cl)C2(Cl)Cl : call = ?
Response: false

Prompt: Entry C=CC(=O)N(C)C : call = ?
Response: false

Prompt: Entry C1CCC(NC2CCCCC2)CC1 : call = ?
Response: true

Prompt: Entry CC(C)(OO)c1ccccc1 : call = ?
Response: false

Prompt: Entry COP(=O)(OC)O/C(=C\Cl)c1cc(Cl)c(Cl)cc1Cl : call = ?
Response: true

Prompt: Entry COc1ccc(C=O)cc1OC : call = ?
Response: true

Prompt: Entry Nc1ccc(-c2ccc(N)c(Cl)c2)cc1Cl : call = ?
Response: true

Prompt: Entry O=C(c1ccccc1)C(Cl)Cl : call = ?
Response: false

Prompt: Entry O=c1[nH]c(=O)[nH]c(=O)[nH]1 : call = ?
Response: false

====

target: human Peroxisome Proliferator-activated Receptor alpha (PPARa), PPARA (gene 5465) (UniProt Q07869); assay: ATG_PPARa_TRANS: Attagene TRANS-FACTORIAL HepG2 Assay for human Peroxisome Proliferator-activated Receptor alpha (PPARa) (AID 2283001)
Sequence (Q07869 whole entry, looked up): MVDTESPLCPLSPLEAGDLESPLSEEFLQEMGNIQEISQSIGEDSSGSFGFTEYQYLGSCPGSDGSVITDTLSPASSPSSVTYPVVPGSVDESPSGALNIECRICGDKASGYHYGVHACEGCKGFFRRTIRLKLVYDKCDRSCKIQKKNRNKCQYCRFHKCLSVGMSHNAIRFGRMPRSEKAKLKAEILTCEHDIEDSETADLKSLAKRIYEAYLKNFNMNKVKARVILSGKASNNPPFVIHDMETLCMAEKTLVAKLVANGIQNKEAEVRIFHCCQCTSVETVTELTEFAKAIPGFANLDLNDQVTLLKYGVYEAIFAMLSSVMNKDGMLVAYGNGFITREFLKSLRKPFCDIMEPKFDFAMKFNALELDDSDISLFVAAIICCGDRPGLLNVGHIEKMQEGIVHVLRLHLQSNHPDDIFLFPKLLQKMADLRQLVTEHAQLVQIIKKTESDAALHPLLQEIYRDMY
Records with an inconclusive call do not appear. Activity calls are given as the source filed them. The calls were made as follows: active = hit-call score of the fitted dose curve at least 0.9, where 1 is the maximum; inconclusive = response in the unintended direction; inactive = score below 0.9.
Outcome field: choose from active, inactive

Sample answers from the record:
{"querySmiles": "C[C@]12CCC(=O)C[C@@H]1CC[C@@H]1[C@@H]2CC[C@]2(C)[C@@H](O)CC[C@@H]12", "group": "inactive"}
{"querySmiles": "Nc1ccc(Cl)cc1C(=O)c1ccccc1", "group": "inactive"}
{"querySmiles": "COP(=S)(OC)Oc1c(Cl)cc(C)cc1Cl", "group": "inactive"}
{"querySmiles": "COc1ccc(C=O)cc1OC", "group": "inactive"}
{"querySmiles": "COP(=S)(OC)Oc1cc(Cl)c(Cl)cc1Cl", "group": "active"}

Prompt: Entry Clc1nc(Cl)nc(Cl)n1 : call = ?
Response: inactive

Prompt: Entry C[C@H]1CCCC(=O)CCC/C=C/c2cc(O)cc(O)c2C(=O)O1 : call = ?
Response: inactive

====

biological target: Nuclear respiratory factor 1 (Homo sapiens); experiment: ATG_NRF1_CIS: Attagene CIS-FACTORIAL HepG2 Assay for human Nuclear Respiratory Factor 1 (NRF1) Orphan Gene (AID 2282987); conditions: HepG2 NRF1 cis-element reporter, Attagene multiplex; actives raise or lower the signal
The source made the active and inactive calls. Rule for the calls: active = hit-call score of the fitted dose curve at least 0.9, where 1 is the maximum; inactive = score below 0.9.
Outcome field: choose from 1 (yes) (active), 0 (no) (inactive)

{"compound": "O=CC=O", "group": "0 (no)"}
{"compound": "CC(C)(C)CC(C)(C)c1ccc(O)cc1", "group": "0 (no)"}
{"compound": "COc1ccc(C=O)cc1", "group": "0 (no)"}
{"compound": "Cn1sc(Cl)cc1=O", "group": "0 (no)"}
{"compound": "Nc1ncc([N+](=O)[O-])s1", "group": "0 (no)"}
{"compound": "O=C(O)C(F)(F)C(F)(F)C(F)(F)C(F)(F)C(F)(F)C(F)(F)F", "group": "0 (no)"}

Prompt: Entry COP(=S)(OC)Oc1c(Cl)cc(C)cc1Cl : call = ?
Response: 0 (no)

Prompt: Entry OCC(O)CCl (stereo not drawn) : call = ?
Response: 0 (no)

Prompt: Entry CC(=O)[O][Hg][c]1ccccc1 : call = ?
Response: 0 (no)

Prompt: Entry COc1ccc(OC)c(C=O)c1 : call = ?
Response: 0 (no)

Prompt: Entry CC(C)(C)c1cc(O)ccc1O : call = ?
Response: 0 (no)

Prompt: Entry C[C@@H]1C[C@@H]([C@H](O)CC2CC(=O)NC(=O)C2)C(=O)[C@@H](C)C1 : call = ?
Response: 0 (no)

Prompt: Entry ClC1=C(Cl)[C@]2(Cl)[C@@H]3[C@@H](Cl)[C@@H](Cl)C[C@@H]3[C@@]1(Cl)C2(Cl)Cl : call = ?
Response: 0 (no)

Prompt: Entry C=CC(=O)N(C)C : call = ?
Response: 0 (no)

Prompt: Entry CCOP(=S)(OCC)SCSP(=S)(OCC)OCC : call = ?
Response: 0 (no)

Prompt: Entry CC(C#N)CCC#N (stereo not drawn) : call = ?
Response: 0 (no)

====

read-out: Monokine induced gamma interferon (MIG), CXCL9 (gene 4283); test: BSK_SAg_MIG: BioMAP Diversity Plus: SAg Assay for Monokine induced gamma interferon (MIG) Biomarker Activity (AID 2283092); settings: primary human HUVEC with PBMC; actives raise or lower the signal
Active and inactive are the calls of the source. How the source made its calls: active means hit-call score of the fitted dose curve at least 0.9, where 1 is the maximum; inactive means score below 0.9.
Outcome field: choose from active, inactive

Sample answers from the record:
{"querySmiles": "COC(=O)Cc1ccccc1", "group": "inactive"}
{"querySmiles": "C[C@@H]1C[C@@H]([C@H](O)CC2CC(=O)NC(=O)C2)C(=O)[C@@H](C)C1", "group": "active"}

Attention now turns to another entry.
Prompt: Entry C(=NC1CCCCC1)=NC1CCCCC1 : call = ?
Response: active

====

target: Paired box protein Pax-6 (Homo sapiens); assay: ATG_Pax6_CIS: Attagene CIS-FACTORIAL HepG2 Assay for human Paired Box 6 (PAX6) (AID 2282956); conditions: HepG2 CIS-FACTORIAL PAX6 reporter transcription, RNA readout; actives raise or lower the signal
Calls of active or inactive are those of the source. How the source made its calls: active means hit-call score of the fitted dose curve at least 0.9, where 1 is the maximum; inactive means score below 0.9.

{"querySmiles": "CC(C)OC(=O)Nc1ccccc1", "outcome": "inactive"}
{"querySmiles": "[O-][Cl+2]([O-])O", "outcome": "inactive"}
{"querySmiles": "O=S(=O)(c1ccc(Cl)cc1)c1ccc(Cl)cc1", "outcome": "inactive"}

====

read-out: Interleukin-1 alpha (IL1a), IL1A (gene 3552); experiment: BSK_BE3C_IL1a: BioMAP Diversity Plus: BE3C Assay for Interleukin-1 alpha (IL1a) Biomarker Activity (AID 2283016); settings: primary human bronchial epithelial cells; actives raise or lower the signal
Active and inactive are the calls of the source. How the source made its calls: active means hit-call score of the fitted dose curve at least 0.9, where 1 is the maximum; inactive means score below 0.9.
Outcome field: choose from active, inactive

{"molecule": "O=C(O)CCC(F)(C(F)(F)F)C(F)(F)F", "group": "inactive"}

Prompt: Entry COP(=S)(OC)Oc1ccc(Sc2ccc(OP(=S)(OC)OC)cc2)cc1 : call = ?
Response: active

Prompt: Entry C=CC(=O)OCCCCCC(C)C : call = ?
Response: inactive

Prompt: Entry CCOP(=S)(OCC)Oc1ccc(S(C)=O)cc1 (configuration not stated) : call = ?
Response: inactive

Prompt: Entry CC(C)(C)c1cc(O)ccc1O : call = ?
Response: inactive

Prompt: Entry ClCC(Cl)CCl : call = ?
Response: inactive

Prompt: Entry Nc1ccc(-c2ccc(N)c(Cl)c2)cc1Cl : call = ?
Response: inactive

Prompt: Entry NC(=O)O : call = ?
Response: inactive

Prompt: Entry CC(=O)[O][Hg][c]1ccccc1 : call = ?
Response: active

Prompt: Entry Cc1ccccc1N : call = ?
Response: inactive

Prompt: Entry O=Cc1cccc(Oc2ccccc2)c1 : call = ?
Response: inactive

Prompt: Entry COC[C@H](C)N(C(=O)CCl)c1c(C)csc1C : call = ?
Response: inactive
